Source listed as the supplement of paper PMC10567573.

B1: ANKRD9 (parent)
chain: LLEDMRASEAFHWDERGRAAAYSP

variants of: B1; assay: protein stability index of a GFP-peptide fusion (GPS, HEK-293T) (PSI 1-6); higher = more stable; details: c terminus: a fixed tail appended;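 also: lentivirally expressed fusions sorted by FACS into six bins by GFP to DsRed ratio, PSI derived from sequencing read proportions per bin multiplied by bin number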
Recorded protein stability index values for a group of variants are listed next.
TEST_READOUT: protein stability index

- CHAIN_SEQUENCE: "LLEDMRASEAFHWDERGRAAAYYP"
  MEASUREMENT: 1.74
- CHAIN_SEQUENCE: "LLEKMRASEAFHWDERGRAAAYSP"
  MEASUREMENT: 2.37
- CHAIN_SEQUENCE: "LLEDMRAKEAFHWDERGRAAAYSP"
  MEASUREMENT: 3.96
- CHAIN_SEQUENCE: "LLEDMRASEAIHWDERGRAAAYSP"
  MEASUREMENT: 1.78
- CHAIN_SEQUENCE: "LLEDMRQSEAFHWDERGRAAAYSP"
  MEASUREMENT: 1.8
- CHAIN_SEQUENCE: "LLEDMRASEAFHWDERGFAAAYSP"
  MEASUREMENT: 2.22
- CHAIN_SEQUENCE: "LLEDMRASEAFHWDERGRAAAYPP"
  MEASUREMENT: 1.4
- CHAIN_SEQUENCE: "LLEDMRASKAFHWDERGRAAAYSP"
  MEASUREMENT: 3.29
- CHAIN_SEQUENCE: "LLSDMRASEAFHWDERGRAAAYSP"
  MEASUREMENT: 1.43
- CHAIN_SEQUENCE: "LLEDMVASEAFHWDERGRAAAYSP"
  MEASUREMENT: 2.43
- CHAIN_SEQUENCE: "LLEDMRALEAFHWDERGRAAAYSP"
  MEASUREMENT: 2.73
- CHAIN_SEQUENCE: "LLEDMRFSEAFHWDERGRAAAYSP"
  MEASUREMENT: 2.64
- CHAIN_SEQUENCE: "LLEDMRASEAFIWDERGRAAAYSP"
  MEASUREMENT: 2.61
- CHAIN_SEQUENCE: "LLEDMRASEAFHWDERGRAAVYSP"
  MEASUREMENT: 3.25
- CHAIN_SEQUENCE: "LMEDMRASEAFHWDERGRAAAYSP"
  MEASUREMENT: 2.67
- CHAIN_SEQUENCE: "LLEDMRASEAFHWDDRGRAAAYSP"
  MEASUREMENT: 1.56
- CHAIN_SEQUENCE: "NLEDMRASEAFHWDERGRAAAYSP"
  MEASUREMENT: 3.97
- CHAIN_SEQUENCE: "LLEDMRASDAFHWDERGRAAAYSP"
  MEASUREMENT: 2.99
- CHAIN_SEQUENCE: "LLEDMRASEAFHWVERGRAAAYSP"
  MEASUREMENT: 1.35
- CHAIN_SEQUENCE: "RLEDMRASEAFHWDERGRAAAYSP"
  MEASUREMENT: 3.93
- CHAIN_SEQUENCE: "LLEDMRYSEAFHWDERGRAAAYSP"
  MEASUREMENT: 1.8
- CHAIN_SEQUENCE: "LKEDMRASEAFHWDERGRAAAYSP"
  MEASUREMENT: 3.25
- CHAIN_SEQUENCE: "LLEDMRVSEAFHWDERGRAAAYSP"
  MEASUREMENT: 2.35
- CHAIN_SEQUENCE: "LLEDMRASEAFHWDERGRAAGYSP"
  MEASUREMENT: 1.33
- CHAIN_SEQUENCE: "LLEDMRASELFHWDERGRAAAYSP"
  MEASUREMENT: 2.82
- CHAIN_SEQUENCE: "LLEDMRASEAFHWIERGRAAAYSP"
  MEASUREMENT: 1.77
- CHAIN_SEQUENCE: "LLEDMRASEAFHWDERGRAAATSP"
  MEASUREMENT: 4.08
- CHAIN_SEQUENCE: "LLEDMRASEFFHWDERGRAAAYSP"
  MEASUREMENT: 2.1
- CHAIN_SEQUENCE: "LLEDMLASEAFHWDERGRAAAYSP"
  MEASUREMENT: 1.1
- CHAIN_SEQUENCE: "LLEDMRASEAFHWDERGRAAAYEP"
  MEASUREMENT: 1.85
- CHAIN_SEQUENCE: "LLEDMRASEAFHWDEMGRAAAYSP"
  MEASUREMENT: 1.32
- CHAIN_SEQUENCE: "LLEDMRASEAFHWDGRGRAAAYSP"
  MEASUREMENT: 1.7
- CHAIN_SEQUENCE: "LLEDMRASEAFHWDERGLAAAYSP"
  MEASUREMENT: 2.24
- CHAIN_SEQUENCE: "LLEDMRASEAFHWDERGRAAAYSR"
  MEASUREMENT: 1.75
- CHAIN_SEQUENCE: "LLEDMRAIEAFHWDERGRAAAYSP"
  MEASUREMENT: 1.95
- CHAIN_SEQUENCE: "LLEDMHASEAFHWDERGRAAAYSP"
  MEASUREMENT: 2.95
- CHAIN_SEQUENCE: "ELEDMRASEAFHWDERGRAAAYSP"
  MEASUREMENT: 4.29
- CHAIN_SEQUENCE: "LLEDMRADEAFHWDERGRAAAYSP"
  MEASUREMENT: 3.89
- CHAIN_SEQUENCE: "LLEDMRASEPFHWDERGRAAAYSP"
  MEASUREMENT: 3.58
- CHAIN_SEQUENCE: "LLEDMRASEAFHWDEIGRAAAYSP"
  MEASUREMENT: 3.12
- CHAIN_SEQUENCE: "LLEDMRASEAFHPDERGRAAAYSP"
  MEASUREMENT: 2.74
- CHAIN_SEQUENCE: "LLEDMRPSEAFHWDERGRAAAYSP"
  MEASUREMENT: 4.21
- CHAIN_SEQUENCE: "LLEDMRASEAFHVDERGRAAAYSP"
  MEASUREMENT: 2.05
- CHAIN_SEQUENCE: "LLEDMRESEAFHWDERGRAAAYSP"
  MEASUREMENT: 1.27
- CHAIN_SEQUENCE: "LLEDMRASEAFHWDERGRAAHYSP"
  MEASUREMENT: 1.45
- CHAIN_SEQUENCE: "LLEDMRASEAFFWDERGRAAAYSP"
  MEASUREMENT: 2.29
